# Test system: Candida albicans
# test details: Antimicrobial activity against Candida albicans SC5314 after 24 hrs by broth microdilution method
# Type: functional
# condition info: SC5314, 24 h
observable: log10 MIC80 (log10 of the value in µg/mL)
The common logarithm of MIC80 in µg/mL is what is listed.

See these solved cases before continuing.
molecule: COc1ccc(-c2nnc(SCCCN3CCN(CC(O)(Cn4cncn4)c4ccc(F)cc4F)CC3)o2)cc1 (stereo not given)
log10 MIC80: -0.60
--
molecule: N#Cc1ccccc1-c1nnc(SCCCN2CCN(CC(O)(Cn3cncn3)c3ccc(F)cc3F)CC2)o1 (stereo not given)
log10 MIC80: -0.90
--
molecule: OC(CN1CCN(CCCSc2nnc(-c3ccccc3Cl)o2)CC1)(Cn1cncn1)c1ccc(F)cc1F (stereo not given)
log10 MIC80: -2.41
--
molecule: COc1ccccc1-c1nnc(SCCCN2CCN(CC(O)(Cn3cncn3)c3ccc(F)cc3F)CC2)o1 (stereo not given)
log10 MIC80: -0.60
--
molecule: OC(Cn1cncn1)(Cn1cncn1)c1ccc(F)cc1F
log10 MIC80: -0.30
--
molecule: OC(CN1CCN(CCCSc2nnc(-c3ccc(Br)cc3)o2)CC1)(Cn1cncn1)c1ccc(F)cc1F (stereo not given)
log10 MIC80: -1.20
--
molecule: OC(CN1CCN(CCCSc2nnc(-c3ccc(F)cc3)o2)CC1)(Cn1cncn1)c1ccc(F)cc1F (stereo not given)
log10 MIC80: -1.81
--
molecule: OC(CN1CCNCC1)(Cn1cncn1)c1ccc(F)cc1F (stereo not given)
log10 MIC80: -0.30

I have this molecule here, Cc1ccccc1-c1nnc(SCCCN2CCN(CC(O)(Cn3cncn3)c3ccc(F)cc3F)CC2)o1 (stereo not given) , and I need its recorded log10 MIC80. -0.60

For the molecule OC(CN1CCN(CCCSc2nnc(-c3ccc(Cl)cc3)o2)CC1)(Cn1cncn1)c1ccc(F)cc1F (stereo not given) , what log10 MIC80 is on record? -2.41

I have this molecule here, OC(CN1CCN(CCCSc2nnc(-c3cccc(F)c3)o2)CC1)(Cn1cncn1)c1ccc(F)cc1F (stereo not given) , and I need its recorded log10 MIC80. -2.41

Entry Cc1cccc(-c2nnc(SCCCN3CCN(CC(O)(Cn4cncn4)c4ccc(F)cc4F)CC3)o2)c1 (stereo not given) has what log10 MIC80? -0.90

Fill in: log10 MIC80 of OC(CN1CCN(CCCSc2nnc(-c3ccccc3F)o2)CC1)(Cn1cncn1)c1ccc(F)cc1F (stereo not given) is ___ -1.20

Can you share its log10 MIC80? I mean this molecule: OC(CN1CCN(CCCSc2nnc(-c3ccccc3Br)o2)CC1)(Cn1cncn1)c1ccc(F)cc1F (stereo not given) -1.81
